src = ChEMBL document CHEMBL1275274

Biological target: UniProt:P00797
Sequence (P00797 whole entry): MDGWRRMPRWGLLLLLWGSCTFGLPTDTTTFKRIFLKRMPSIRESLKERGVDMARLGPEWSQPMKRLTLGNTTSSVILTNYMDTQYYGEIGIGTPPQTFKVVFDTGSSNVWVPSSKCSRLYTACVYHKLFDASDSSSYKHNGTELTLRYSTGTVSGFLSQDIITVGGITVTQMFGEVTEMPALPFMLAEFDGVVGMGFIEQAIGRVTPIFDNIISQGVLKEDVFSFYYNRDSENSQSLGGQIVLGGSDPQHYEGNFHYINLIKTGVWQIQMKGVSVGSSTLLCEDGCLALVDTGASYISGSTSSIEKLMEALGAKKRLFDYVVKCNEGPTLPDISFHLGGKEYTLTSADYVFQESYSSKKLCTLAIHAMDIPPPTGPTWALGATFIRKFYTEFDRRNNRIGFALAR
Format: cell-free, Plasma
metric.name: IC50 (nM)

COC[C@@H](O)CO[C@@H]1CNC[C@H](OCc2cc(OC)c3ccccc3c2)[C@H]1c1ccc(OCCCOCc2ccccc2OC)cc1; 8.9
COc1ccccc1COCCCOc1ccc([C@@H]2[C@@H](OCc3cc(OC)c4ccccc4c3)CNC[C@H]2OC[C@H](O)CO)cc1; 2.2
COc1ccccc1COCCCOc1ccc([C@H]2CCNC[C@@H]2OCc2ccc3c(c2)N(CCNC(C)=O)CCC3)cc1; 0.6
COc1ccccc1COCCCOc1ccc([C@H]2CCNC[C@@H]2OCc2ccc3c(c2)NCCC3)cc1; 31
CCCCNC(=O)[C@H](C)C[C@H](O)[C@@H](N)C[C@@H](CNC(=O)c1cn(CC)c2ccccc12)C(C)C; 4

P = CNC[C@H](CC1CCCCC1)NC(=O)N1CCC[C@@H]([C@@H](OCCCOC)c2ccccc2)C1
Q = COCCCCOc1ccccc1C(=O)NC[C@@H](C[C@H](N)[C@@H](O)C[C@H](C(=O)NCCC1CCN(C(C)=O)CC1)C(C)C)C(C)C
Between P and Q , which one shows the smaller IC50 number? Mark your selection by writing its label. Q

----------
target: Renin (Homo sapiens); assay: Inhibition of human recombinant renin in buffer
metric.name: IC50 (nM)

Observe how each entry below is paired with its result.
COc1ccc(CO[C@H]2CNCC[C@@H]2c2ccc(Cl)cc2)cc1; 25000
COc1ccccc1COCCCOc1ccc(N2C(=O)CNC[C@@H]2COC2=CC3C(C=C2)CCCN3CCNC(C)=O)cc1 (some centres undefined); 0.29

a = COc1ccccc1COCCCOc1ccc(N2C(=O)CNC[C@@H]2COCc2cccnc2)cc1
b = COC[C@@H]1CNC[C@H](OCc2ccc3ccccc3c2)[C@H]1c1ccc(COC(=O)c2ccccc2Cl)cc1
Between a and b , which one shows the smaller IC50 number? Mark your selection by writing its label. b

I = COc1ccccc1COCCCOc1ccc(C2=C(C(=O)N(Cc3ccnc(OC)c3C)C3CC3)[C@H]3CNC[C@@H](C2)N3)cc1
II = CCCCNC(=O)[C@H](C)C[C@H](O)[C@@H](N)CC(C)(C)CC(=O)N1C[C@H](C(=O)OC)Cc2ccccc21
Between I and II , which one shows the smaller IC50 number? Mark your selection by writing its label. II
(II: 0.8 nM, I: 1.4 nM)

----------
biological target: Renin (Homo sapiens, UniProt P00797); test: Inhibition of human recombinant renin in buffer
Readings of pIC50 for the listed compounds
On this scale, pIC50 is minus log10 of a concentration expressed in M (mol/L).

COc1ccccc1COCCCOc1ccc([C@H]2CCNC[C@@H]2OCc2ccc3c(c2)NCCC3)cc1; 9.68

Item "Cc1cc(Cl)c(OCCOc2ccc(C3=C(C(=O)N(Cc4cccc(C)c4C)C4CC4)[C@H]4CNC[C@@H](C3)N4)cc2)c(Cl)c1" has what recorded pIC50? 9.70

Item "CCCCNC(=O)[C@H](C)C[C@H](O)[C@@H](N)C[C@H](C)COC(=O)c1cn(Cc2ccccc2)c2ccccc12" has what recorded pIC50? 9.00
